IC50 by entry:
- SUBJECT OF TEST: Rac GTPase-activating protein 1 (Homo sapiens)
- Sequence (Q9H0H5 whole entry): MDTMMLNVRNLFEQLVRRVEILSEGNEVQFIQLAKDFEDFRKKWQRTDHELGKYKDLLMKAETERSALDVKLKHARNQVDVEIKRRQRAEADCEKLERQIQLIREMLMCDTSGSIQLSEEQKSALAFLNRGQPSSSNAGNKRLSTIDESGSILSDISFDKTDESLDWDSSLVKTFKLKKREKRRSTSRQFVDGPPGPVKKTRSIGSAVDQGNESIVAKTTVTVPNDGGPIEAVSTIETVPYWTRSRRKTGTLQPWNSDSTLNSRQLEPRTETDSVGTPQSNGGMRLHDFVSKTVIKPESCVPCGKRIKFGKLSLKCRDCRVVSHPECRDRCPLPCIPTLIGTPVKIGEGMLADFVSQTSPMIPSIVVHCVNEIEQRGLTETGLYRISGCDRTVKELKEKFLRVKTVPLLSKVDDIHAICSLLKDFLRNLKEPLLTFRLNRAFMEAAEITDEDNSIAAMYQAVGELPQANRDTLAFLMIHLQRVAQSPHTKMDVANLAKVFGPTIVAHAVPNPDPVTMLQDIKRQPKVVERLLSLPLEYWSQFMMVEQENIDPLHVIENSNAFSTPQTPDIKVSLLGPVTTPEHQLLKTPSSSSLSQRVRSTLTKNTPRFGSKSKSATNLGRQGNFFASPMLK
- ASSAY METHOD TEXT: MgcRacGAP GTPase-activating activity inhibitors, confirmation, biochemical, ADP Hunter fluorescence, primary and confirmatory (AID 624330)
- Assay type: functional
Active and inactive are the calls of the source. The rule behind the calls is not given here.

[
  {
    "COMPOUND": "C=CCn1c(SCC(=O)c2ccc(O)c(O)c2)nnc1-c1cccc(OC)c1",
    "SUBJECT OF TEST": "Rac GTPase-activating protein 1 (Homo sapiens)",
    "IC50": "77.7 µM (active)"
  },
  {
    "COMPOUND": "CC(C(=O)Nc1ccccc1C(F)(F)F)N1CCN(C)CC1 (stereo unspecified)",
    "SUBJECT OF TEST": "Rac GTPase-activating protein 1 (Homo sapiens)",
    "IC50": "163 µM (active)"
  },
  {
    "COMPOUND": "COc1ccc2c(C)cc3n[nH]c(=S)n3c2c1",
    "SUBJECT OF TEST": "Rac GTPase-activating protein 1 (Homo sapiens)",
    "IC50": "20.6 µM (active)"
  },
  {
    "COMPOUND": "CSc1nc(/C=C2\\C=Nc3ccccc32)c(O)n1C",
    "SUBJECT OF TEST": "Rac GTPase-activating protein 1 (Homo sapiens)",
    "IC50": "41 µM (active)"
  },
  {
    "COMPOUND": "O=C(CN1CCCCCC1)Nc1nc2ccccc2s1",
    "SUBJECT OF TEST": "Rac GTPase-activating protein 1 (Homo sapiens)",
    "IC50": "173 µM (active)"
  },
  {
    "COMPOUND": "COc1cc(/C=N/NC(=O)c2ccccc2)ccc1O",
    "SUBJECT OF TEST": "Rac GTPase-activating protein 1 (Homo sapiens)",
    "IC50": "29.9 µM (active)"
  },
  {
    "COMPOUND": "CC(C)N(CCNCC(O)COc1ccc(C(C)(C)c2ccccc2)cc1)C(C)C (stereo unspecified)",
    "SUBJECT OF TEST": "Rac GTPase-activating protein 1 (Homo sapiens)",
    "IC50": "204 µM (active)"
  },
  {
    "COMPOUND": "CC1(C)O[C@@H]2[C@H](O1)[C@@H](COS(=O)(=O)O)O[C@H]2n1c(S)nc2c(O)nc(N)nc21",
    "SUBJECT OF TEST": "Rac GTPase-activating protein 1 (Homo sapiens)",
    "IC50": "53.7 µM (active)"
  },
  {
    "COMPOUND": "Nc1ccccc1SSc1ccccc1N",
    "SUBJECT OF TEST": "Rac GTPase-activating protein 1 (Homo sapiens)",
    "IC50": "86.1 µM (active)"
  },
  {
    "COMPOUND": "CCOc1cc(N2CCOCC2)c(OCC)cc1NCC(=O)N1CCN(Cc2ccccc2)CC1",
    "SUBJECT OF TEST": "Rac GTPase-activating protein 1 (Homo sapiens)",
    "IC50": "64.2 µM (active)"
  },
  {
    "COMPOUND": "Cc1cc(-c2ccccc2)nc(N/N=C/c2ccc(O)cc2)n1",
    "SUBJECT OF TEST": "Rac GTPase-activating protein 1 (Homo sapiens)",
    "IC50": "18.2 µM (active)"
  }
]
